- Tested on: Dengue-2 (Strain New Guinea C)
- assay.procedure: Viral yield assay against Dengue-2 in Vero cells
- Type: cell-based, Dengue virus
- details: Dengue virus; Vero cells, MOI 0.1, harvested 48 hours post infection; read-out: Activity (EC50 class) against Dengue-2 Virus in Vero cells
observation.type: EC50

                                    compound      result
 0  CN1CCc2nc3sc(C(=O)Nc4ccccc4F)c(N)c3cc2C1 [Compound 38]      < 5 µM
 1  CCc1ccccc1NC(=O)c1sc2nc3c(c(-c4ccco4)c2c1N)CCC3 [Compound 219]     > 25 µM
 2  CC1(C)Cc2nc3sc4c(=O)n(Cc5ccc(Cl)cc5Cl)cnc4c3cc2CO1 [Compound 252]     > 25 µM
 3  CN1CCc2nc3sc(C(=O)Nc4ccc(Cl)cc4)c(N)c3c(-c3cccs3)c2C1 [Compound 36]      < 5 µM
 4  Nc1c(C(=O)Nc2ccccc2)sc2nc3c(cc12)CCCCC3 [Compound 217]     > 25 µM
 5  Cc1cc(NC(=O)c2sc3nc4c(c(-c5cccs5)c3c2N)CN(C)CC4)no1 [Compound 103]  5 to 25 µM
 6  CCc1nnc(NC(=O)c2sc3nc(-c4ccccc4)cc(C(F)(F)F)c3c2N)s1 [Compound 194]     > 25 µM
 7  CCN(CC)C(=O)c1sc2nc3c(cc2c1N)CN(C)CC3 [Compound 15]      < 5 µM
 8  COc1ccc(-c2cc(-c3ccccc3)nc3sc(C(N)=O)c(N)c23)cc1 [Compound 125]     > 25 µM
 9  Nc1c(C(=O)Nc2nnc(-c3ccccc3)s2)sc2nc3c(cc12)CCCCC3 [Compound 1]      < 5 µM
10  CN1CCc2nc3sc(C(=O)Nc4cccc(C#N)c4)c(N)c3cc2C1 [Compound 112]  5 to 25 µM
11  Nc1c(C(=O)N(c2ccccc2)c2ccccc2)sc2nc3c(cc12)CCC3 [Compound 207]     > 25 µM
12  CCOc1cccc(NC(=O)c2sc3nc4c(cc3c2N)CN(C)CC4)c1 [Compound 108]  5 to 25 µM
13  COc1ccc(Cl)cc1NC(=O)c1sc2nc3c(cc2c1N)CN(Cc1ccccc1)CC3 [Compound 31]      < 5 µM
14  CN1CCc2nc3sc(C(=O)Nc4ccc5c(c4)OCO5)c(N)c3cc2C1 [Compound 33]      < 5 µM
15  CCOC(=O)c1c(NC(=O)c2sc3nc(N)c(C#N)cc3c2N)sc2c1CCCC2 [Compound 148]     > 25 µM
16  Cc1ccc(NC(=O)c2sc3nc4c(cc3c2N)CN(C)CC4)c(C)c1 [Compound 17]      < 5 µM
17  COc1ccccc1-c1cc(-c2ccccc2)c2c(N)c(C(=O)NC3CC3)sc2n1 [Compound 67]  5 to 25 µM
18  C=CCc1c(C)nc2sc(C(=O)Nc3cccc(Cl)c3)c(N)c2c1C [Compound 96]  5 to 25 µM

From: patent US20170121344A1
